assay: Aqueous solubility measurements; format: physicochemical; details: media FaSSIF; 24 hours at 25° C.

Compound: Cc1nc(-c2ccc(OCC(C)C)c(C#N)c2)sc1C(=O)O [Form G of U.S. Pat. No. 6,225,474, reference compound]
Visual solubility: Turbid + few particles

Compound: Cc1nc(-c2ccc(OCC(C)C)c(C#N)c2)sc1C(=O)O [Form XI]
Visual solubility: Turbid + few particles

Compound: Cc1nc(-c2ccc(OCC(C)C)c(C#N)c2)sc1C(=O)O [Form V]
Visual solubility: Turbid + few particles

---

assay: Aqueous solubility measurements; format: physicochemical; settings: media pH 4.5 (USP); 24 hours at 25° C.
Experimental Readout: HPLC solubility (µg/mL)
Use µg/mL as the unit, but write only the number.

### Prompt Look up HPLC solubility for this compound: Cc1nc(-c2ccc(OCC(C)C)c(C#N)c2)sc1C(=O)O [Form XI]
### Response 0.49

### Prompt Look up HPLC solubility for this compound: Cc1nc(-c2ccc(OCC(C)C)c(C#N)c2)sc1C(=O)O [Form G of U.S. Pat. No. 6,225,474, reference compound]
### Response 0.11

### Prompt Look up HPLC solubility for this compound: Cc1nc(-c2ccc(OCC(C)C)c(C#N)c2)sc1C(=O)O [Form V]
### Response 0.38

### Prompt Look up HPLC solubility for this compound: Cc1nc(-c2ccc(OCC(C)C)c(C#N)c2)sc1C(=O)O [Form IX]
### Response 0.78
